Test system: RARb homodimer (NR concentration 270 nM)
Assay: PBM binding z-score (relative to random genomic background probes); higher = stronger binding; sequences stand for … in GC…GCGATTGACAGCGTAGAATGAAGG
Threshold rule: PBM binding z-score greater than or equal to 3 is condition met; below that, condition not met.

Here's what some known entries look like.
* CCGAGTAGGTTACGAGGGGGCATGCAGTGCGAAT | condition not met
* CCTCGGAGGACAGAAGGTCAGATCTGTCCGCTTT | condition met
* ATATGTAGGTTAAGGTCATTCAGAAAGTAGGGAA | condition met
* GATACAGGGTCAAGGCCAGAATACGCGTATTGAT | condition met
* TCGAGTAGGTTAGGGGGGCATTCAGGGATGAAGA | condition not met

Now look at this one.
Dear colleague, could you confirm whether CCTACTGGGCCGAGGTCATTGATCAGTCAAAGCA has PBM binding z-score at or above 3?
condition met
